Recorded values, source the supplement of paper PMC13380429.

tested on: Vero E6; test: drug sensitivity score (DSS) for viability; higher = more toxic; extreme values may be limits of the assay; details: 72 h
reported-metric: drug sensitivity score
Form rule: numeric answer, no unit written next to it.

The cases that follow already have their drug sensitivity score on record.
>  <molecule>
C[C@]12CC[C@H]3[C@@H](CC[C@@]45O[C@@H]4C(O)=C(C#N)C[C@]35C)[C@@H]1CC[C@@H]2O

>  <target-entity>
Vero E6

>  <drug sensitivity score>
0

$$$$
>  <molecule>
O=C1CNC(=O)CN1

>  <target-entity>
Vero E6

>  <drug sensitivity score>
2.1

$$$$
>  <molecule>
FC(F)(F)c1cccc(C2=CCN(CCc3ccc4ccccc4c3)CC2)c1

>  <target-entity>
Vero E6

>  <drug sensitivity score>
0

$$$$
>  <molecule>
CC(=O)OC[C@H]1O[C@@H]([S-])[C@H](OC(C)=O)[C@@H](OC(C)=O)[C@@H]1OC(C)=O.CCP(CC)CC.[Au+]

>  <target-entity>
Vero E6

>  <drug sensitivity score>
7.5

$$$$
>  <molecule>
C[C@@]1(C(=O)O)NCCc2cc(O)c(O)cc21

>  <target-entity>
Vero E6

>  <drug sensitivity score>
0

$$$$

**Q:** Which drug sensitivity score is listed for CCCCN(CCCC)CCC(O)c1cc2c(Cl)cc(Cl)cc2c2cc(C(F)(F)F)ccc12 (stereo not drawn) ?
**A:** 1.9

**Q:** Try this molecule next: [NH-]c1c[n+](N2CCOCC2)no1
**A:** 0

**Q:** Try this molecule next: COc1ccc(-c2cc(=O)c3c(OC)c(OC)c(OC)c(OC)c3o2)cc1OC
**A:** 0

---

tested on: Vero E6; experiment: relative viability EC50 (midpoint between 100% and the lowest measured viability); higher = less toxic; conditions: 72 h
reported-metric: relative viability EC50

>  <compound>
Cc1ccc(C)c(OCCCC(C)(C)C(=O)O)c1 [gemfibrozil]

>  <target-entity>
Vero E6

>  <meas-value>
> 10 µM

$$$$
>  <compound>
CCNC(=O)c1noc(-c2cc(C(C)C)c(O)cc2O)c1-c1ccc(CN2CCOCC2)cc1 [NVP-AUY922]

>  <target-entity>
Vero E6

>  <meas-value>
0.0702 µM

$$$$
>  <compound>
COc1cc2nc(N3CCCN(C)CC3)nc(NC3CCN(Cc4ccccc4)CC3)c2cc1OC

>  <target-entity>
Vero E6

>  <meas-value>
2.77 µM

$$$$

**Q:** Which relative viability EC50 is listed for N=C(N)NC(=N)NCCc1ccccc1 [phenformin] ?
**A:** > 10 µM

**Q:** Try this compound next: C[C@@H](C(=O)O)c1ccc(-c2ccccc2)c(F)c1 (racemic) [flurbiprofen-(+/-)]
**A:** > 10 µM

**Q:** Try this compound next: CC1CNc2c(cccc2S(=O)(=O)N[C@@H](CCCNC(=N)N)C(=O)N2CC[C@@H](C)C[C@@H]2C(=O)O)C1 (mixture of isomers) [argatroban]
**A:** > 10 µM

**Q:** Try this compound next: CN(C)[C@@H]1C(O)=C(C(N)=O)C(=O)[C@@]2(O)C(O)=C3C(=O)c4c(O)cccc4[C@@](C)(O)[C@H]3C[C@@H]12 [tetracycline]
**A:** > 10 µM

**Q:** Try this compound next: NS(=O)(=O)c1cc2c(cc1C(F)(F)F)NCNS2(=O)=O [hydroflumethiazide]
**A:** > 10 µM
